target: turtle bombesin receptor subtype-3 (turtle (Chrysemys picta)); experiment: radioligand binding; displacement of 50 pM [125I]-Tyr-NMB by unlabeled peptide on disaggregated transfected HEK293 cells; 1 h at 21°C; 24.5 mM HEPES pH 7.4, 98 mM NaCl; bound tracer separated by centrifugation
Sequence (main, as listed by the source): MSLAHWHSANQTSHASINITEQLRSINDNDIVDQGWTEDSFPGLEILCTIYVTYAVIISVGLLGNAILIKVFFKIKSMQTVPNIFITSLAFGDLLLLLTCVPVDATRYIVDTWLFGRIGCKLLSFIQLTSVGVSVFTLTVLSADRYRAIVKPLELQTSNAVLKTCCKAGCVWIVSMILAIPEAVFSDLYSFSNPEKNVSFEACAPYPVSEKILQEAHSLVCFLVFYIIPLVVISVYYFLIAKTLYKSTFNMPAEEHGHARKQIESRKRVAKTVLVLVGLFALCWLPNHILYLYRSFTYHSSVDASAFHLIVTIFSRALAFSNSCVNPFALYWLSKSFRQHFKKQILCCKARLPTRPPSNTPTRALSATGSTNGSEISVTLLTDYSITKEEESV
Where no end group is shown, it is not given here.
quantity-measured: IC50 (nM)
# value in nM; strip the unit string

Query (binder): APLQPGGSPALTKIYPRGSHWAVGHLM (ends and bridges not checked) [gastrin-releasing peptide, unlabeled ligand peptide of the radioligand binding assays] ; field requested: IC50
0.28
